subjectOfTest: CaNbp2
assay: SPOT peptide array binding signal intensity (averaged, normalized) (arbitrary units (background-subtracted, floor 0; scale differs between SH3 domains)); higher = stronger binding of the SH3 domain to the peptide
SPOT peptide array binding signal intensity: recorded values
Enter the number alone.

- binder: "MARRRLPDRPPNGIG"
  testResult: 1660
- binder: "LEFRAILFIPKRAPF"
  testResult: 1090

# input for lookup
Task: SPOT peptide array binding signal intensity lookup needed for `HKVLRPFLLRRLKKD` , thanks.
Output: 715
